# ASSAYED_TARGET: Nav1.7 (or SCN9A) channel (Homo sapiens, UniProt Q15858)
# Construct: expressed in transfected cells
# Sequence (Q15858 whole entry): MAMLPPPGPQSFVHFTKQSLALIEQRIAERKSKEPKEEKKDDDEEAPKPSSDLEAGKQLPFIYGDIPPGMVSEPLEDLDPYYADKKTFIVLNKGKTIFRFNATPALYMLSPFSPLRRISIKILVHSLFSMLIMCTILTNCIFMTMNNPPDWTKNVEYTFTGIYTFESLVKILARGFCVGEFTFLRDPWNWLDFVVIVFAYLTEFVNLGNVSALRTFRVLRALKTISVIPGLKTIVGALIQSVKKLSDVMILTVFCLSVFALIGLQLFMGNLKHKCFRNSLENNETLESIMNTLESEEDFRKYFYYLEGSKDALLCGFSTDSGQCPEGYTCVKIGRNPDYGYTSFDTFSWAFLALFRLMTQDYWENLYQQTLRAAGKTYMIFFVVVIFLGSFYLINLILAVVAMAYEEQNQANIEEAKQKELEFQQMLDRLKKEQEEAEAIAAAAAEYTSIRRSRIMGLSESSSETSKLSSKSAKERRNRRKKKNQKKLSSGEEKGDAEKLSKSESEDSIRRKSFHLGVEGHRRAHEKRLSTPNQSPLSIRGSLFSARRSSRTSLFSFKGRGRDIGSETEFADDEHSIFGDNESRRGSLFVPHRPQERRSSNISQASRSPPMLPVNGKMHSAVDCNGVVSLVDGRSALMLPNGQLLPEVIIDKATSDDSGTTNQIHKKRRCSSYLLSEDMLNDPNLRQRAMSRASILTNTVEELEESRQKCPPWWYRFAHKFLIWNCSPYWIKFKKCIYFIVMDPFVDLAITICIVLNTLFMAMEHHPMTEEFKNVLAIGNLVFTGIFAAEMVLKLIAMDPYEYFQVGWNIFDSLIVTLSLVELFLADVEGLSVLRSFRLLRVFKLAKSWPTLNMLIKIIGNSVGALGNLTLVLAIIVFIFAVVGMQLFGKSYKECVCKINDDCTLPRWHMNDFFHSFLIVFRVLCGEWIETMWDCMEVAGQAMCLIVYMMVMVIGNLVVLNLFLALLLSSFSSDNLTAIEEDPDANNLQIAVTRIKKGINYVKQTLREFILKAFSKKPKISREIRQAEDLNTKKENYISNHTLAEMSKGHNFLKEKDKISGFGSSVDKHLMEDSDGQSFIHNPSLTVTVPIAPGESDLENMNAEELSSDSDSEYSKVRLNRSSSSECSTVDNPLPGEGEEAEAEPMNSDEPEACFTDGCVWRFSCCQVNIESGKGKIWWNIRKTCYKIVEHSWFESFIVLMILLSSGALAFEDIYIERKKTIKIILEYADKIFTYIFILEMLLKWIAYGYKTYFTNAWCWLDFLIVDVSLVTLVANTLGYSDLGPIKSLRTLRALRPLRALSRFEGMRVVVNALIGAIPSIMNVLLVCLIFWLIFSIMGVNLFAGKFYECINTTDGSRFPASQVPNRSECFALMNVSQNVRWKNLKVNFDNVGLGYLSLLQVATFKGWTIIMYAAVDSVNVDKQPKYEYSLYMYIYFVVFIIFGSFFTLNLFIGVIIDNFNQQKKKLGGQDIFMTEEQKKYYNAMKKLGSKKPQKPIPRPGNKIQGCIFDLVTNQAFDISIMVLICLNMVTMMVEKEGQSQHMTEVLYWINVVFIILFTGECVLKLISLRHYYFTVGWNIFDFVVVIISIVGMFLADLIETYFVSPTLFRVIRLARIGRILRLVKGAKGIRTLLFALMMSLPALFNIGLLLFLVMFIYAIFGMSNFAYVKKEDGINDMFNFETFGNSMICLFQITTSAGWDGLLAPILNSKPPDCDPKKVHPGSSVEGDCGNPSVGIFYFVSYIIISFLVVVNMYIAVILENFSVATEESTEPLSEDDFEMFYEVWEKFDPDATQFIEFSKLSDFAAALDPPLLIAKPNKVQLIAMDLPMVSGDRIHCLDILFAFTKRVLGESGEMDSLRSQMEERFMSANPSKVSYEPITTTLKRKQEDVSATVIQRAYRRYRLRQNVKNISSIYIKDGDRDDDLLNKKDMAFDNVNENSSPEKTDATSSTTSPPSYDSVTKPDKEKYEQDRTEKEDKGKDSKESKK
# PROTOCOL: Nav1.7 PatchXpress automated whole-cell electrophysiology in HEK cells expressing hSCN9A
# Assay type: cell-based
# EXPERIMENTAL_PARAMETERS: estimated IC50 from single point data, PatchXpress assay, held at V1/2 of inactivation, read-out: Nav1.7 EIC50
MEASURED_QUANTITY: IC50 (nM)
Numbers only, in nM.

Field request: IC50 | item: CCOc1ccccc1-c1cc(C(=O)NS(C)(=O)=O)ccc1Oc1ccc(Cl)cc1
120

Item under review: CCOc1cccc(-c2cc(C(=O)NS(C)(=O)=O)ccc2Oc2ccc(Cl)cc2)c1 . Reported IC50?
820

Entry CS(=O)(=O)NC(=O)c1ccc(Oc2ccc(Cl)cc2)c(-c2ccccc2Cl)c1 has what IC50?
270

Reported IC50, molecule COc1ncccc1-c1cc(C(=O)NS(C)(=O)=O)ccc1Oc1ccc(F)c(C(F)(F)F)c1 : ____
150

Moving on to the next molecule.
Form field: reported IC50 of COc1ccc(Oc2ccc(C(=O)NS(C)(=O)=O)cc2-c2cccnc2OC)cc1
640

====

# ASSAYED_TARGET: Nav1.7 (or SCN9A) channel (Homo sapiens)
# Construct: expressed in transfected cells
# PROTOCOL: Nav1.7 PatchXpress automated whole-cell electrophysiology in HEK cells expressing hSCN9A
# Format: cell-based
# EXPERIMENTAL_PARAMETERS: estimated IC50 from single point data, PatchXpress assay, held at V1/2 of inactivation, read-out: Nav1.7 EIC50
MEASURED_QUANTITY: pIC50
Numbers only, as −log10 of the molar value.

Which value of pIC50 has been reported for COc1cccc(-c2cc(C(=O)NS(C)(=O)=O)ccc2Oc2ccc(Cl)cc2)c1 in the records?
6.24

Which pIC50 value is on record for COc1ncccc1-c1cc(C(=O)NS(C)(=O)=O)ccc1Oc1ccc(OC(F)(F)F)cc1 ?
7.18

Entry CCc1cc(Oc2ccc(C(=O)NS(C)(=O)=O)cc2-c2cccnc2OC)ccc1Cl : reported pIC50 = ?
7.74

Record request: pIC50 value, item COc1ncccc1-c1cc(C(=O)NS(C)(=O)=O)ccc1Oc1ccc(C#N)cc1
5.62

I would be grateful if you could share the reported pIC50 for COc1ncccc1-c1cc(C(=O)NS(C)(=O)=O)ccc1Oc1cccc(Cl)c1 .
6.34

Quick check: pIC50 of CS(=O)(=O)NC(=O)c1ccc(Oc2ccc(Cl)cc2)c(-c2ccc(F)cc2)c1 ?
6.96

What measured pIC50 goes with COc1ncccc1-c1cc(C(=O)NS(C)(=O)=O)ccc1Oc1ccc(C(C)C)cc1 ?
7.42

Could you tell me which pIC50 is on file for Cc1cc(-c2cc(C(=O)NS(C)(=O)=O)ccc2Oc2ccc(Cl)cc2)ccn1 ?
5.07

For each of the compounds below, state pIC50.
1. COc1cc(-c2cc(C(=O)NS(C)(=O)=O)ccc2Oc2ccc(Cl)cc2)ccn1
2. COc1ncccc1-c1cc(C(=O)NS(C)(=O)=O)ccc1Oc1cc(F)cc(Cl)c1
3. Cn1cc(-c2cc(C(=O)NS(C)(=O)=O)ccc2Oc2ccc(Cl)cc2)cn1
4. COc1ncccc1-c1cc(C(=O)NS(C)(=O)=O)ccc1Oc1cccc(C(F)(F)F)c1
5. COCc1ccc(Oc2ccc(C(=O)NS(C)(=O)=O)cc2-c2cccnc2OC)cc1
6. COc1ncccc1-c1cc(C(=O)NS(=O)(=O)C2CC2)ccc1Oc1ccccc1
7. COc1ncccc1-c1cc(C(=O)NS(C)(=O)=O)ccc1Oc1cncc(Cl)c1
8. COc1ccccc1-c1cc(C(=O)NS(C)(=O)=O)ccc1Oc1ccc(Cl)cc1

1. 5.70
2. 6.92
3. 5.01
4. 7.18
5. 5.92
6. 5.89
7. 5.85
8. 6.74

Would you mind giving pIC50 for every compound in the list below?
1. COc1ncccc1-c1cc(C(=O)NS(C)(=O)=O)ccc1Oc1ccc(F)c(F)c1
2. CS(=O)(=O)NC(=O)c1ccc(Oc2ccc(Cl)cc2)c(-c2ccc(C#N)nc2)c1
3. CCOc1ccccc1Oc1ccc(C(=O)NS(C)(=O)=O)cc1-c1cccnc1OC
4. CS(=O)(=O)NC(=O)c1ccc(Oc2ccc(Cl)cc2)c(-c2ccccc2OC(F)(F)F)c1
5. CCOc1cccc(Oc2ccc(C(=O)NS(C)(=O)=O)cc2-c2cccnc2OC)c1
6. COc1ncccc1-c1cc(C(=O)NS(C)(=O)=O)ccc1Oc1ccc(C)cc1
7. COc1ncccc1-c1cc(C(=O)NS(C)(=O)=O)ccc1Oc1cccc(OC(F)(F)F)c1
8. CS(=O)(=O)NC(=O)c1ccc(Oc2ccc(Cl)cc2)c(-c2cc[nH]n2)c1

[6.36, 5.96, 5.55, 6.30, 6.31, 6.77, 7.08, 6.03]

# map each compound to its pIC50
1. COc1ncccc1-c1cc(C(=O)NS(C)(=O)=O)ccc1Oc1ccc(F)cc1F
2. CS(=O)(=O)NC(=O)c1ccc(Oc2ccc(Cl)cc2)c(-c2ccc(C(F)(F)F)cc2)c1
3. COc1cccc(Oc2ccc(C(=O)NS(C)(=O)=O)cc2-c2cccnc2OC)c1
4. COc1ccc(-c2cc(C(=O)NS(C)(=O)=O)ccc2Oc2ccc(Cl)cc2)cn1
5. COc1ncccc1-c1cc(C(=O)NS(C)(=O)=O)ccc1Oc1cccc(C#N)c1

1: 5.96; 2: 6.20; 3: 6.19; 4: 6.04; 5: 5.60

Kindly give each listed record's pIC50.
1. COc1ccc(Oc2ccc(C(=O)NS(C)(=O)=O)cc2-c2cccnc2OC)cc1Cl
2. CS(=O)(=O)NC(=O)c1ccc(Oc2ccc(Cl)cc2)c(-c2ccccc2F)c1

1. 6.51
2. 6.24
